- measuredOn: MICA*004 on HCC1534 cells (human, UniProt Q29983 24-383)
- experiment: cell-based or functional assay
observationType: EC50 of shedding inhibition (µg/mL)
Write the answer as a number in µg/mL, unit excluded.

binder	unitDescriptor	EC50 of shedding inhibition
20G11 (antibody, V domains shown, Mouse hybridoma antibody; constant regions differ by assay) VH: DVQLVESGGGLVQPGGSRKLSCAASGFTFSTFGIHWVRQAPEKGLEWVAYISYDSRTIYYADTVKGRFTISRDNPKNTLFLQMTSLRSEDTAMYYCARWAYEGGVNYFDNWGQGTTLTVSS VL: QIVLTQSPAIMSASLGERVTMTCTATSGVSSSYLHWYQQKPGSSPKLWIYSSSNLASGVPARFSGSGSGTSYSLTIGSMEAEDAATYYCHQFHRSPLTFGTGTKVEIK	µg/mL	0.123

Shifting focus to the binder that follows.
What value of EC50 of shedding inhibition has been reported for the following binder? 12H10 (antibody, V domains shown, Mouse variable domains; constant regions differ by assay) VH: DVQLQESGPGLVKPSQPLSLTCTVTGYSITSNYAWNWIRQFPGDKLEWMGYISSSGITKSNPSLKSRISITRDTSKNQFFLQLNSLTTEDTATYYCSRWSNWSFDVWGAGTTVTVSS VL: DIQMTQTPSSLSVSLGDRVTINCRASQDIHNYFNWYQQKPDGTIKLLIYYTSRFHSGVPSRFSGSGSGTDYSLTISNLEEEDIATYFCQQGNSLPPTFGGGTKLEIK
0.0689
